# measurementDescription: Manual MTT cell viability assay, 7 d
# Format: cell-based, mouse
# runParameters: mouse, NIH/3T3 cells; manual; in brackets the two individual experiments; read-out: Cytotoxicity assay MTT, 7 d IC50 NIH/3T3
Examples of compounds with documented IC50 at 7 d follow.
outcomeMeasure: IC50 at 7 d (µg/mL)

C[C@@H]1C[C@H]2[C@@H]3CCC4=CC(=O)C=C[C@]4(C)[C@@]3(F)[C@@H](O)C[C@]2(C)[C@@]1(O)C(=O)CO [Dexamethasone, dexamethasone]    49.2
O=c1[nH]cc(F)c(=O)[nH]1 [5-Fluorouracil, 5-fluorouracil]    0.116
